AIRE transcriptional activation functional score values, listed per item
B1: library; numbered along this chain (parent)
chain: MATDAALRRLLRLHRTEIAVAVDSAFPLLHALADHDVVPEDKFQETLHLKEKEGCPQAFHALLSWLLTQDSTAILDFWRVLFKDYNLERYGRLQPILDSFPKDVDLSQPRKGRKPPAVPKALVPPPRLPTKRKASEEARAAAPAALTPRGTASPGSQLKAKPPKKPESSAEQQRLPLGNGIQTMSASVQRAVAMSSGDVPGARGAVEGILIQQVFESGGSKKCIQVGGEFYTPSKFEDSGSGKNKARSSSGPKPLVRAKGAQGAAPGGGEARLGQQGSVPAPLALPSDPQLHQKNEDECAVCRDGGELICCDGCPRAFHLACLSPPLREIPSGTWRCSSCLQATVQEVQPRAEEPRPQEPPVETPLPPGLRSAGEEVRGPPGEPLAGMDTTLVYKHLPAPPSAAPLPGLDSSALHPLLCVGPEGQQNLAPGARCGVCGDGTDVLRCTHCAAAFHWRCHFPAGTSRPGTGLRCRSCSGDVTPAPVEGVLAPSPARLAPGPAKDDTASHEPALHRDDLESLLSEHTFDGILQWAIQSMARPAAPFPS

Variants of: B1
Test: AIRE transcriptional activation functional score (insulin promoter-GFP; nonsense median 0, synonymous median 1) (normalised score); higher = higher AIRE activity (more reporter activation)
Settings: with insulin promoter-GFP reporter in HEK293
RECORDED METRIC: AIRE transcriptional activation functional score

>  <MUTANT NAME>
E167M

>  <OBSERVED>
1.68

$$$$
>  <MUTANT NAME>
P490C

>  <OBSERVED>
1.26

$$$$
>  <MUTANT NAME>
L29W

>  <OBSERVED>
0.224

$$$$
